biological target: fusion protein from the PR-ligand-binding domain and a Gal4-transactivation domain (Homo sapiens, UniProt P06401); assay: Progestational action by transactivation test (CHO K1 reporter cells); assay type: cell-based; conditions: CHO K1 luciferase reporter, 16 hours incubation; read-out: Progesterone receptor Agonism efficacy
Sequence (P06401 679-913): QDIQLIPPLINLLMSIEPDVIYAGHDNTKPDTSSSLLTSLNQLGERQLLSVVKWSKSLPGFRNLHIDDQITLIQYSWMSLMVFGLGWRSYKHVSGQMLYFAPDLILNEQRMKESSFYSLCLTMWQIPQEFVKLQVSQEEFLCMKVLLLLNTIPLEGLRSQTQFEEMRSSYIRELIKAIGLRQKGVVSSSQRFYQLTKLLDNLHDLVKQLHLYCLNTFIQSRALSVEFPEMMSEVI
# cutoff 30% applies to Emax; >= gives 1, < gives 0

Some solved entries appear below for comparison.
CC[C@]12CC[C@H]3[C@@H]([C@H](C)CC4=CC(=O)CC[C@@H]43)[C@@H]1CC[C@@]21C=CCO1 : 1
C[C@@H]1CC2=CC(=O)CC[C@@H]2[C@H]2CC[C@@]3(C)[C@@H](CC[C@@]34C=CCO4)[C@@H]21 : 1
CC[C@@H]1CC2=CC(=O)CC[C@@H]2[C@H]2CC[C@@]3(C)[C@@H](CC[C@@]34C=CCO4)[C@H]12 : 1
C=C[C@@H]1CC2=CC(=O)CC[C@@H]2[C@H]2CC[C@@]3(C)[C@@H](CC[C@@]34C=CCO4)[C@@H]21 : 0

# evaluate next
Enquiry: Is Emax at least 30%? Consider C[C@]12CCC(=O)C=C1[C@@H]1C[C@@H]1[C@H]1[C@@H]3[C@@H]4C[C@@H]4[C@@]4(CCC(=O)O4)[C@@]3(C)CC[C@@H]12 [A, reference compound]
Return: 1

----------
target: mineralocorticoid receptor (Homo sapiens (Human), UniProt P08235); assay: Mineralocorticoid receptor binding test; settings: reference 3H-aldosterone, Hi5 cytosol
Sequence (P08235 whole entry): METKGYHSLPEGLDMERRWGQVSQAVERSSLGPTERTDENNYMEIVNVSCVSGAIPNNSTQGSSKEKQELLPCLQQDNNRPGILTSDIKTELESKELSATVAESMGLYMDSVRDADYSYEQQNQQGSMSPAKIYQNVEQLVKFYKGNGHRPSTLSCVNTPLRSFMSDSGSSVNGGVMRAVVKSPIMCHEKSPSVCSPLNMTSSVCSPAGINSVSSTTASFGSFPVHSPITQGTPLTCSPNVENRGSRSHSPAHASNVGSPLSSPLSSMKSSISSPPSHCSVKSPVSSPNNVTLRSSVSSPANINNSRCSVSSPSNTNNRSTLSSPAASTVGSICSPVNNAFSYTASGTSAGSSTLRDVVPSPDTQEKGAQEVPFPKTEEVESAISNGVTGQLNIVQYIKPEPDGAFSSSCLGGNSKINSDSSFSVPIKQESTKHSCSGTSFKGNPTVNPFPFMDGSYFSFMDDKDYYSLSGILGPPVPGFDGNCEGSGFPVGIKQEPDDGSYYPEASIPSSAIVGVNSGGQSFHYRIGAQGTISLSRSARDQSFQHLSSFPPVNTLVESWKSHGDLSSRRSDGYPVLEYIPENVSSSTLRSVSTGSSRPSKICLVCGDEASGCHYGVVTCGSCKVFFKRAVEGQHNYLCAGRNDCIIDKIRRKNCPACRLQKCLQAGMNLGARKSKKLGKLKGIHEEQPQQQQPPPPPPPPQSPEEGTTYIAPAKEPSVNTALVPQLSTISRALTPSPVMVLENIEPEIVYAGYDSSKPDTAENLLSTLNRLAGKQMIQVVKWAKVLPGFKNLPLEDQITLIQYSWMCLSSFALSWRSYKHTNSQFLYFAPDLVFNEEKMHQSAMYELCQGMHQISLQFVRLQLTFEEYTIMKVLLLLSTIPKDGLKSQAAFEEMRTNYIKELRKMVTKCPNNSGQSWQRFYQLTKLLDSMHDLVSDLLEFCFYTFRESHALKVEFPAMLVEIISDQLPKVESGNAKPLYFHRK
REPORTED_ENDPOINT: Mineralocorticoid receptor (MR) Competition factor
Returns: the value as a bare number; no unit string appended.

Enquiry: // fetch Mineralocorticoid receptor (MR) Competition factor given entry C[C@]12CC[C@H]3[C@@H](CCC4=CC(=O)CC[C@@H]43)[C@@H]1CC1(CC1)[C@@]21C=CCO1 (stereo in doubt)
Return: 22.9

Enquiry: Answer with the recorded Mineralocorticoid receptor (MR) Competition factor for the compound listed here: CC[C@@H]1CC2=CC(=O)CC[C@@H]2[C@H]2CC[C@@]3(C)[C@@H](CC[C@@]34C=CCO4)[C@H]12
Return: 4.1

Enquiry: Give the measured Mineralocorticoid receptor (MR) Competition factor for CC[C@]12CC[C@H]3[C@@H]([C@H](C4CC4)CC4=CC(=O)CC[C@@H]43)[C@@H]1CC[C@@]21C=CCO1
Return: 2.0

----------
target: androgen receptor (Homo sapiens (Human), UniProt P10275); assay: Androgen receptor binding test; conditions: reference 3H-testosterone, Hi5 cytosol
Sequence (P10275 whole entry, species assumed): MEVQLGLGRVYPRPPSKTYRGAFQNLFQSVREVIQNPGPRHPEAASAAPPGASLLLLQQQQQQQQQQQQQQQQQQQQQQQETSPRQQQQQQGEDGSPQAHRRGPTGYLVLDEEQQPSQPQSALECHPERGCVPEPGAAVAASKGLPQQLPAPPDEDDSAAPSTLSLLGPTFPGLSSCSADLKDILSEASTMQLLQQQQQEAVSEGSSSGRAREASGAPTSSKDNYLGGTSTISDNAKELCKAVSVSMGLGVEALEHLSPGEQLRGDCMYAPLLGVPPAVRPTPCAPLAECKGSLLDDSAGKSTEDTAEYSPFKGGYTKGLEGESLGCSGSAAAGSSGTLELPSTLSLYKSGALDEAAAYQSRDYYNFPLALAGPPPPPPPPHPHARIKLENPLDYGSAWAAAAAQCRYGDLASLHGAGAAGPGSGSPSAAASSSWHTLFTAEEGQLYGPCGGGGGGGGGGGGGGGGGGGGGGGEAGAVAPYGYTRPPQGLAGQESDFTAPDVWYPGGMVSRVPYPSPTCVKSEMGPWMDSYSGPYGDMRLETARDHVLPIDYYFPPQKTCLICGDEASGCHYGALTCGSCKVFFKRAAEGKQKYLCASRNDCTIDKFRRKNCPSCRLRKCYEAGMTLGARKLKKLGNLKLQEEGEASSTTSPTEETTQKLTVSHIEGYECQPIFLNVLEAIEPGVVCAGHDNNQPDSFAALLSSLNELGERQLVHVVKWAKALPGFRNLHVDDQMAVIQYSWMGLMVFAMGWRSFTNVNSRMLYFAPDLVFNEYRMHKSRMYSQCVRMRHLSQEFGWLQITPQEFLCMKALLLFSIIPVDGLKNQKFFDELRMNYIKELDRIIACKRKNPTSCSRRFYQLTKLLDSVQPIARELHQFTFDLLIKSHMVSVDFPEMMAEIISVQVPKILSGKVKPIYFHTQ
Androgen receptor Competition factor vs 4: less than gives yes (1); not less than gives no (0).

Example results:
CC[C@@H]1CC2=CC(=O)CC[C@@H]2[C@H]2CC[C@@]3(C)[C@@H](CC[C@@]34C=CCO4)[C@H]12 : yes (1)
CC[C@]12CC[C@H]3[C@@H](CCC4=CC(=O)CC[C@@H]43)[C@@H]1CC[C@@]21C=CCO1 (stereo in doubt) : yes (1)
CC[C@]12CC[C@H]3[C@@H]([C@H](C)CC4=CC(=O)CC[C@@H]43)[C@@H]1CC[C@@]21C=CCO1 : yes (1)

Enquiry: Dear colleague, could you confirm whether Androgen receptor Competition factor of C=C[C@@H]1CC2=CC(=O)CC[C@@H]2[C@H]2CC[C@@]3(C)[C@@H](CC[C@@]34C=CCO4)[C@@H]21 falls below 4? Thanks.
Return: yes (1)

Enquiry: Here's an entry: C=C[C@@H]1CC2=CC(=O)CC[C@@H]2[C@H]2CC[C@@]3(CC)[C@@H](CC[C@@]34C=CCO4)[C@@H]21 . Is its Androgen receptor Competition factor below 4?
Return: no (0)

Enquiry: In the record for CC[C@]12CC[C@H]3[C@@H](C[C@@H](CO)C4=CC(=O)CC[C@@H]43)[C@@H]1CC[C@@]21C=CCO1 , is Androgen receptor Competition factor less than 4?
Return: no (0)

----------
target: mineralocorticoid receptor (Homo sapiens (Human)); experiment: Antimineralocorticoid action by transactivation test (MDCK reporter cells); type: cell-based; conditions: MDCK reporter cells, 1 nM aldosterone; read-out: Mineralocorticoid receptor Antagonism efficacy
REPORTED_ENDPOINT: Emax (%)
Please respond with the number in % and leave the unit unwritten.

CC[C@]12CC[C@H]3[C@@H](CCC4=CC(=O)CC[C@@H]43)[C@@H]1CC[C@@]21C=CCO1 (stereo in doubt) : 87.8
CC[C@@H]1CC2=CC(=O)CC[C@@H]2[C@H]2CC[C@@]3(CC)[C@@H](CC[C@@]34C=CCO4)[C@H]12 : 39.2
C[C@@H]1CC2=CC(=O)CC[C@@H]2[C@H]2CC[C@@]3(C)[C@@H](CC[C@@]34C=CCO4)[C@@H]21 : 112
CC[C@]12CC[C@H]3[C@@H]([C@H](C)CC4=CC(=O)CC[C@@H]43)[C@@H]1CC[C@@]21C=CCO1 : 105
C=C[C@@H]1CC2=CC(=O)CC[C@@H]2[C@H]2CC[C@@]3(C)[C@@H](CC[C@@]34C=CCO4)[C@@H]21 : 121

Now take the following molecule into account.
Enquiry: Return Emax (reported value) for this molecule: CC[C@]12CC[C@H]3[C@@H](C[C@@H](CO)C4=CC(=O)CC[C@@H]43)[C@@H]1CC[C@@]21C=CCO1
Return: 98.8

----------
target: progesterone receptor (Homo sapiens (Human)); test: Progesterone receptor binding test; conditions: CF 1 = affinity of progesterone; CF > 1 lower affinity
Sequence (P06401 whole entry, species assumed): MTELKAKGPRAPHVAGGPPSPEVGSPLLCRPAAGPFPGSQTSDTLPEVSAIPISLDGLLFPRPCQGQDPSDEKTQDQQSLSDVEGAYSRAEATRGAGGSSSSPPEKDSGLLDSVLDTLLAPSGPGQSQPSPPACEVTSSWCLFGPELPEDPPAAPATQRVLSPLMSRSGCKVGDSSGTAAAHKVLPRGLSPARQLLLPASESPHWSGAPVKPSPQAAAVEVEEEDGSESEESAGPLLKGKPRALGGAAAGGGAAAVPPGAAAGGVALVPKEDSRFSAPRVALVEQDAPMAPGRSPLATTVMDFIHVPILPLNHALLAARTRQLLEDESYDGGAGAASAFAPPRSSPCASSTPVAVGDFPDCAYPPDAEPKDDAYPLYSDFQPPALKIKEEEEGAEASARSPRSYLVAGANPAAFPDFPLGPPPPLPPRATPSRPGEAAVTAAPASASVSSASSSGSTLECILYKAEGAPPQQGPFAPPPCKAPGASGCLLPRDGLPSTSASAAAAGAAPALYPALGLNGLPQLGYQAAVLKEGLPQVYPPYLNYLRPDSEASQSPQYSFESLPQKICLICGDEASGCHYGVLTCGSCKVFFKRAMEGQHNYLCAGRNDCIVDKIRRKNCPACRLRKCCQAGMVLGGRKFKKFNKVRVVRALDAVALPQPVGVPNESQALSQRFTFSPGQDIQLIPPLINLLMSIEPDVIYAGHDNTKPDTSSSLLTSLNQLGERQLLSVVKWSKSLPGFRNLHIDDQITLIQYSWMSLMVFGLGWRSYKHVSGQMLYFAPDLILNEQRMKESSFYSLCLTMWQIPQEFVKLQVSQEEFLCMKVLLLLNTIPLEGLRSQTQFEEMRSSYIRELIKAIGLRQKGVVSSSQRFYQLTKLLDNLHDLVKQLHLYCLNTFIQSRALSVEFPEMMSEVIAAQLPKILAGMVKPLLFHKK
Progesterone receptor (PR) Competition factor values for the molecules below.
Write the value as a bare number.

CC[C@]12CC[C@H]3[C@@H]([C@H](C4CC4)CC4=CC(=O)CC[C@@H]43)[C@@H]1CC[C@@]21C=CCO1 : 8.51
CC[C@]12CC[C@H]3[C@@H]([C@H](C)CC4=CC(=O)CC[C@@H]43)[C@@H]1CC[C@@]21C=CCO1 : 3.26

Continue with the molecule presented below.
Enquiry: Provide measured Progesterone receptor (PR) Competition factor value, entry: CC[C@]12CC[C@H]3[C@@H](C[C@@H](CO)C4=CC(=O)CC[C@@H]43)[C@@H]1CC[C@@]21C=CCO1
Return: 88.59

----------
target: progesterone receptor (Homo sapiens (Human))
REPORTED_ENDPOINT: pIC50
Worth noting: pIC50 values are minus log10 of concentrations stated in mol/L.

Solved cases (3 shown):
CC[C@@H]1CC2=CC(=O)CC[C@@H]2[C@H]2CC[C@@]3(C)[C@@H](CC[C@@]34C=CCO4)[C@H]12 : 6.89
CC[C@]12CC[C@H]3[C@@H]([C@H](C4CC4)CC4=CC(=O)CC[C@@H]43)[C@@H]1CC[C@@]21C=CCO1 : 6.68
CC[C@@H]1CC2=CC(=O)CC[C@@H]2[C@H]2CC[C@@]3(CC)[C@@H](CC[C@@]34C=CCO4)[C@H]12 : 6.77

Enquiry: Identify measured pIC50 corresponding to C[C@]12CC[C@H]3[C@@H](CCC4=CC(=O)CC[C@@H]43)[C@@H]1CC[C@@]21C=CCO1 (stereo in doubt)
Return: 8.52

Enquiry: Specify pIC50 for C[C@]12CC[C@H]3[C@@H](C=CC4=CC(=O)CC[C@@H]43)[C@@H]1CC[C@@]21C=CCO1 (stereo in doubt) and stop.
Return: 7.26

----------
target: UniProt P10275; assay: Androgenic/antiandrogenic action by transactivation test (PC3 reporter cells); type: cell-based; conditions: 0.05 nM R1881, read-out: Androgen receptor Antagonism efficacy
Quick reference: Emax of the listed items.
Respond numerically; units are % and should not be typed.

CC[C@@H]1CC2=CC(=O)CC[C@@H]2[C@H]2CC[C@@]3(CC)[C@@H](CC[C@@]34C=CCO4)[C@H]12 [Example 10] : 5
C=C[C@@H]1CC2=CC(=O)CC[C@@H]2[C@H]2CC[C@@]3(CC)[C@@H](CC[C@@]34C=CCO4)[C@@H]21 [Example 11] : 5
CC[C@@H]1CC2=CC(=O)CC[C@@H]2[C@H]2CC[C@@]3(C)[C@@H](CC[C@@]34C=CCO4)[C@H]12 [Example 4] : 5
C[C@]12CC[C@H]3[C@@H](CCC4=CC(=O)CC[C@@H]43)[C@@H]1CC[C@@]21C=CCO1 (stereo in doubt) [Example 1] : 29
C[C@@H]1CC2=CC(=O)CC[C@@H]2[C@H]2CC[C@@]3(C)[C@@H](CC[C@@]34C=CCO4)[C@@H]21 [Example 3] : 5

Enquiry: // Input: CC[C@]12CC[C@H]3[C@@H](C=CC4=CC(=O)CC[C@@H]43)[C@@H]1CC[C@@]21C=CCO1 (stereo in doubt) [Example 8] . Output its Emax only.
Return: 5

----------
biological target: UniProt:P10275; experiment: Androgenic/antiandrogenic action by transactivation test (PC3 reporter cells); type: cell-based; settings: 0.05 nM R1881, read-out: Androgen receptor Antagonism IC50
Below, each entry is listed with its recorded IC50.
Response body: numeric value in nM, unit text excluded.

Enquiry: Please give measured IC50 of the following entry: CC[C@@H]1CC2=CC(=O)CC[C@@H]2[C@H]2CC[C@@]3(C)[C@@H](CC[C@@]34C=CCO4)[C@H]12
Return: 1000

Enquiry: Tell me measured IC50 for CC[C@]12CC[C@H]3[C@@H](CCC4=CC(=O)CC[C@@H]43)[C@@H]1CC[C@@]21C=CCO1 (stereo in doubt) please.
Return: 160

Enquiry: Tell me measured IC50 for CC[C@@H]1CC2=CC(=O)CC[C@@H]2[C@H]2CC[C@@]3(CC)[C@@H](CC[C@@]34C=CCO4)[C@H]12 please.
Return: 1000

Enquiry: Quote IC50 reported for CC[C@]12CC[C@H]3[C@@H]([C@H](C)CC4=CC(=O)CC[C@@H]43)[C@@H]1CC[C@@]21C=CCO1 please.
Return: 1000

Enquiry: Identify measured IC50 associated with C=C[C@@H]1CC2=CC(=O)CC[C@@H]2[C@H]2CC[C@@]3(CC)[C@@H](CC[C@@]34C=CCO4)[C@@H]21
Return: 1000

Enquiry: Give the reported IC50 for this molecule. C=C[C@@H]1CC2=CC(=O)CC[C@@H]2[C@H]2CC[C@@]3(C)[C@@H](CC[C@@]34C=CCO4)[C@@H]21
Return: 1000

Enquiry: Specify measured IC50 for CC[C@]12CC[C@H]3[C@@H](C[C@@H](CO)C4=CC(=O)CC[C@@H]43)[C@@H]1CC[C@@]21C=CCO1 .
Return: 140
